# System: A2780 cells
# run description: Proliferation assay (Method 3), A2780
# Type: cell-based
# measurement setup: A2780, 96 h; human ovarian carcinoma, 4 days, crystal violet; read-out: Inhibition of A2780 cell proliferation IC50

structure smiles string | IC50 / nM
CS(=O)(=O)Cc1cc(F)nc(Nc2cc(-c3ccc(F)c4ccoc34)c(F)cn2)c1 | 24

###

Measured IC50 values are reported for all entries that follow.
# System: DU145 cells
# run description: Proliferation assay (Method 3), DU145
# Type: cell-based
# measurement setup: DU-145, 96 h; hormone-independent human prostate carcinoma, 4 days, crystal violet; read-out: Inhibition of DU145 cell proliferation IC50

structure smiles string | subject of test | IC50, nM
Cc1cc(CS(C)(=O)=O)cc(Nc2cc(-c3ccc(F)c4ccoc34)c(F)cn2)n1 | DU145 cells | 24
CS(=O)(=O)Cc1ccnc(Nc2cc(-c3ccc(F)c4ccoc34)c(F)cn2)c1 | DU145 cells | 34
CS(=O)(=O)Cc1cc(F)nc(Nc2cc(-c3ccc(F)c4ccoc34)c(F)cn2)c1 | DU145 cells | 36
CS(=O)(=O)Cc1cc(Nc2cc(-c3ccc(F)c4ccoc34)c(F)cn2)nc(C(F)(F)F)c1 | DU145 cells | 30
CS(=O)(=O)Cc1ccnc(Nc2cc(-c3cccc4ccoc34)c(F)cn2)c1 | DU145 cells | 58
